# System: H4
# ASSAY_SUMMARY: Luminescence Cell-Based Dose Response HTS to Identify Activators of 5'UTR Stem-Loop Driven Prion Protein mRNA Translation in H4 Neuroglioblastoma Cells. [Related pubchem assays: 1829 (Project Summary), 1814 (Primary HTS)]
# Assay type: functional
# RUN_PARAMETERS: Homo sapiens
Activity calls are given as the source filed them. Rule as the data show it: actives have a measured EC50 and inactives only a lower limit.
ENDPOINT: EC50

response.value for "O=c1cccc2n1Cc1cc3ccccc3nc1-2" (field: EC50) = 37.6 µM (active)

Others:
response.value for "CC1CCN(C(=O)CSc2nc3ccccc3s2)CC1" (field: EC50) = 20.3 µM (active)

Sure, the documented EC50 for "CC(=O)Nc1ccc(S(=O)(=O)N/N=C/c2ccc(C)s2)cc1" is 53.5 µM (active)

Form: compound = "COc1ccc(C(=O)OCc2csc(C)n2)c(O)c1" ; EC50 = 79.1 µM (active)

Taken from ChEMBL document CHEMBL1201862.
